Reported Internalization %, MDA-MB-231, 0.5 µg/ml, 2 h by item:
# assay-target: T1, human Trop-2 expressed on cell surface (human, UniProt P09758 27-323)
# T1 sequence (looked up): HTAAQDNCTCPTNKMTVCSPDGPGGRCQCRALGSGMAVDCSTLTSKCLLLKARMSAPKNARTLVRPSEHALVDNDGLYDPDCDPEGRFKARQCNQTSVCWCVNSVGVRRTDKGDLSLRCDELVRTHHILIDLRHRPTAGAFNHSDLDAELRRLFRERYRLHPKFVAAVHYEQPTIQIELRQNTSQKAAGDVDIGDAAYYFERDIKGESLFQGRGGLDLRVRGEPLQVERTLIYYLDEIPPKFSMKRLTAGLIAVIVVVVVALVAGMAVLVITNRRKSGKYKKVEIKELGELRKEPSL
# assay-name: cell-based or functional assay
Field format: number, assumed %, no unit text.

1) 10A9-2 (antibody, V domains shown) VH: QSLEESGGDLVQPGASLTLTCKASGFDLNNYAMLWVRQAPGKGLEWIGSIYISGGTTYFASWATGRFAISKTSSTTVTLQMTSLTAADTATYFCARDDGTTSYYLNLWGPGTLVTVSS VL: YDMTQTPASVSAAVGGTVTIKCQASEDIYSLLAWYQQKPGQPPKLLIYGASNLESGVPSRFKGSGSGTEYTLTISDLEADDAATYYCQQAYTIGNIDNAFGGGTEVVVK	44
2) 5D4-1 (antibody, V domains shown) VH: QQLEESGGGLVKPEGSLTLTCKGSGFDFSGTYWMWWVRQAPGKGLEWIAPIYVGSGSSTYYASWAKGRFTISSTSSTAVTLQATSLTAADTATYFCARGATNNVFMNYFNLWGPGTLVTVSS VL: FEMTQTPSSVSEPVGGTVTIKCQASEDISSNLGWYQQKPGQPPKLLIYGASTLASGVPSRFKGSGSGTEFTLTISDLEPADAATYYCQTSYYIDDGVNGFGGGTEVVVK	56
3) 1D10 (antibody, V domains shown, Rabbit-derived clone; LEM construct: VH + rabbit IgG CH1 + human IgG1 CH2-CH3) VH: QEQLKESGGGLVQPGGSLTLSCKASGFDFNYYGVSWVRQAPGKGLEWIGYIYPAYHNTYYATWVNGRFTISSHNAQNTLYLQLNTLTAADTATYFCARDAGSTDYNLNLWGPGTLVTVSS VL: DVVMTQTPASVEVAVGGTVTIKCQASEDIESYLAWYQQKPGQPPRLLIYEASKLASGVSSRFSGGGYGTDFTLTISGVECADAATYYCHQALTIGNVDNPFGGGGEVVVK	48
4) 5D4 (antibody, V domains shown, Rabbit-derived clone; LEM construct: VH + rabbit IgG CH1 + human IgG1 CH2-CH3) VH: QQLEESGGGLVKPEGSLTLTCKGSGFDFSGTYWMWWVRQAPGKGLEWIACIYVGSGSSTYYASWAKGRFTISSTSSTAVTLQATSLTAADTATYFCARGATNNVFMNYFNLWGPGTLVTVSS VL: FEMTQTPSSVSEPVGGTVTIKCQASEDISSNLGWYQQKPGQPPKLLIYGASTLASGVPSRFKGSGSGTEFTLTISDLECADAATYYCQTSYYIDDGVNGFGGGTEVVVK	49

Continue with the binder presented below.
stdin: Recall and state the measured Internalization %, MDA-MB-231, 0.5 µg/ml, 2 h for 74F11/15F5 (antibody, human IgG1, V domains shown, LEM construct: VH + rabbit IgG CH1 + human IgG1 CH2-CH3) VH: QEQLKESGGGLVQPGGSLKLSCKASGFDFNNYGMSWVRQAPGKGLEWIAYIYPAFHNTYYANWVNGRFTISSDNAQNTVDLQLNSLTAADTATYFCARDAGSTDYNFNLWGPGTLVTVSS VL: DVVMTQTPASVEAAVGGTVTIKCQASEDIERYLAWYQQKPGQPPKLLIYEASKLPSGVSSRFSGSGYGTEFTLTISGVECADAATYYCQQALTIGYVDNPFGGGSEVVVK .
stdout: 37
